Target: human ether-à-go-go-related gene (hERG) potassium channel (human);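 note: peak tail current of the secondary pulse compared with the same well before compound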
Sequence (Q12809 whole entry, looked up): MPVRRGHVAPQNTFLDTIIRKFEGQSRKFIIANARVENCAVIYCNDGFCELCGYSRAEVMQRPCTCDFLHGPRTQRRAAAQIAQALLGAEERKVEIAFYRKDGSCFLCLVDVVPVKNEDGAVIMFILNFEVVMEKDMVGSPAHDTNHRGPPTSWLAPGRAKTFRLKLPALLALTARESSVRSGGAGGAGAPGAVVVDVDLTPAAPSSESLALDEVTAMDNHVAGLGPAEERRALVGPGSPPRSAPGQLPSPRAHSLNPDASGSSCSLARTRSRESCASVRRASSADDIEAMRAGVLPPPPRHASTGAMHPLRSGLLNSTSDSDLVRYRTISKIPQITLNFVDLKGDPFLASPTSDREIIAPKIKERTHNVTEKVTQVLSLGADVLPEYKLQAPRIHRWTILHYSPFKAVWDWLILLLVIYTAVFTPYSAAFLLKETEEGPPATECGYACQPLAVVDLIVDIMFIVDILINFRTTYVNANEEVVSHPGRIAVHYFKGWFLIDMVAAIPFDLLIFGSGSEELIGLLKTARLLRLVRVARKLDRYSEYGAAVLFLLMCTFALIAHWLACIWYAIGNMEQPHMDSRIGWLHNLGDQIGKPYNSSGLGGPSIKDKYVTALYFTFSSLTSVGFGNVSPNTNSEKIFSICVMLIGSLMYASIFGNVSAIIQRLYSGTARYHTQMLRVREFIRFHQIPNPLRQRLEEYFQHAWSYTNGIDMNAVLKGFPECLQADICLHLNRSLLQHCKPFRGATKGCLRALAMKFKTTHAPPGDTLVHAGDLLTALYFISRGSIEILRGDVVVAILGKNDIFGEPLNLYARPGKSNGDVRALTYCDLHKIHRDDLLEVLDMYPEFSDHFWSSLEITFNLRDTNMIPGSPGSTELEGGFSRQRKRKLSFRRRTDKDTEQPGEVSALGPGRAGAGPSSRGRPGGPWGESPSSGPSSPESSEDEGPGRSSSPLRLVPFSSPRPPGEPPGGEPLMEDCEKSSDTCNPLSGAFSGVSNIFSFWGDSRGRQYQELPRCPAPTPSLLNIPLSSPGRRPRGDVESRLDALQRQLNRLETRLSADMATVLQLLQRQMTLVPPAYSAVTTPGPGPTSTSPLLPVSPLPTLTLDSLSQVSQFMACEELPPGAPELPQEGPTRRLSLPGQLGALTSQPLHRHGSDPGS
Test: primary screen, population patch clamp on CHO cells stably expressing hERG; higher = less effect of the substance
Experimental: Briefly, Chinese hamster ovary (CHO) cells stably expressing the hERG channel were dislodged from tissue culture flasks and dispensed into PPC plates. […] During the recording, background leak currents were estimated by a 100 ms step to -80 mV from an initial holding potential of -70 mV and subtracted from the subsequent current measurement. The campaign was conducted in two phases using slight differences in recording protocol. […]
Out of some 310,000 compounds screened, about 14,000 (4.5%) showed an effect of 50% or more. Effects have a minus sign here. Only a selection was taken, and strong results are over-represented in it overall.
reported_property: hERG current change (%, negative = inhibition) at 10uM

> print(dat)
                               smiles.entry  endpoint.result
1     COC(=O)CN=Cc1c(C)[nH]n(-c2ccccc2)c1=O           -1.99%
2  Cc1cc(C)cc(NC(=O)Cn2nnc(C(=O)NCc3ccco3)c2N)c1            6.01%
3           CCOC(=O)c1c(NCc2ccccc2)n[nH]c1C               5%
4     CN(C)/C=N/c1nc2nccc(-c3ccc(F)cc3)n2n1            13.8%
5  Cc1[nH]n(-c2ccccc2)c(=O)c1/C=N/NC(=O)c1ccccc1F            2.32%
6  COc1ccc(CCN=Cc2c(C)[nH]n(-c3ccc([N+](=O)[O-])cc3)c2=O)cc1OC            16.4%
7  Cc1[nH]n(-c2ccc([N+](=O)[O-])cc2)c(=O)c1C=NCCN1CCN(C(=O)c2cccc(F)c2)CC1           -73.4%
8  CC1(C)CC(=O)C(C=NCCN2CCN(C(=O)c3ccc(Br)cc3)CC2)=C(O)C1           -48.2%
9  Cc1[nH]n(-c2ccc([N+](=O)[O-])cc2)c(=O)c1C=NCCN1CCN(C(=O)C(C)C)CC1           -64.2%
